test system: ATP; test: switch fluorescence ratio, 500 uM ATP over buffer (Cy3 cluster intensity, sum of 5 cycles each) (fold (ratio)); higher = stronger signal-on switching upon ATP binding; sequences stand for … in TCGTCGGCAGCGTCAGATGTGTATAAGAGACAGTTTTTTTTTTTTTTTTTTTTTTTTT…TC; conditions: aptamer strand: ATP DNA aptamer (quencher-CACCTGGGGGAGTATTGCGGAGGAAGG + anchor), 100 nM annealed; ATP concentration: 500 uM;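 also: ATP exposure 15 min at 22 °C before imaging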
Parameter: switch fluorescence ratio
Respond numerically, and do not add a unit to the figure.

For the sequence ATTGGGGGGC , report switch fluorescence ratio.
1.01

Query switch fluorescence ratio for TGTTTAATTT
1.03

Given the sequence TGGGGGGGAC , write its reported switch fluorescence ratio.
1.04

Fill in switch fluorescence ratio for record CCTTGGGGTG
1.06

State its switch fluorescence ratio for this sequence: TTACACATCA
1.08

For AGTAGATTAA , write its switch fluorescence ratio.
0.986

* * *

test system: ATP; experiment: switch fluorescence ratio, 500 uM ATP over buffer (Cy3 cluster intensity, sum of 5 cycles each) (fold (ratio)); higher = stronger signal-on switching upon ATP binding; sequences stand for … in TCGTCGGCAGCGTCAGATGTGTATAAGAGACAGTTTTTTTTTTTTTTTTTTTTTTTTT…TC; details: aptamer strand: ATP DNA aptamer (quencher-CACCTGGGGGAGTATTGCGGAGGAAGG + anchor), 100 nM annealed; ATP concentration: 500 uM;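 also: ATP exposure 15 min at 22 °C before imaging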
Parameter: switch fluorescence ratio

Past entries and their recorded results:
Sequence Content	Experimental Target	switch fluorescence ratio
GGTCCTGGGC	ATP	1.01
GCCTTGACAG	ATP	0.989
TTTTGGCGAA	ATP	0.989
TCGGCGACAT	ATP	1

Answer with the recorded switch fluorescence ratio for the sequence listed here: CGGGGGTACG
1.02

Respond only with switch fluorescence ratio recorded for CAAGTAGACC
0.997

Annotate the sequence GGTGTTAGGT with its measured switch fluorescence ratio.
0.993

// Input: TAGGTTCCGG . Output its switch fluorescence ratio only.
0.993

Let me know recorded switch fluorescence ratio for AAGAGGGGGC , thanks.
0.986

Identify measured switch fluorescence ratio associated with CTGATTTGTA
1

Query switch fluorescence ratio for TTCATTACGT
0.996

Give switch fluorescence ratio for the following sequence: TTAGTGTAAT
1.01

Output measured switch fluorescence ratio for this item: TTATTGTTGT
1

Output measured switch fluorescence ratio for this item: TGAGGTATTA
1.01

* * *

# switch fluorescence ratio listing for each entry below
system: ATP; assay: switch fluorescence ratio, 500 uM ATP over buffer (Cy3 cluster intensity, sum of 5 cycles each) (fold (ratio)); higher = stronger signal-on switching upon ATP binding; sequences stand for … in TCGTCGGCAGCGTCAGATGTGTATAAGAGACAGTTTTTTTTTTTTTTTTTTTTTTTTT…TC; settings: aptamer strand: ATP DNA aptamer (quencher-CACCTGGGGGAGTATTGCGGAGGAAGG + anchor), 100 nM annealed; ATP concentration: 500 uM;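 also: ATP exposure 15 min at 22 °C before imaging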
// keep it numeric: no unit symbol after the value

Sequence Content	switch fluorescence ratio
ATACTCGTTA	1.01

Report switch fluorescence ratio on ATP for this entry: AGGTAGGGGC
1.02

Jot down switch fluorescence ratio (ATP) of ATGAAATTGT .
1.02

Give switch fluorescence ratio for ATTAGAGGGA tested on ATP.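 Also: ATP exposure 15 min at 22 °C before imaging.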
1.01
